pIC50 reference
target: human metabotropic glutamate 7 receptor (hmGlu7) (Homo sapiens); assay: mGlu7 assay on HEK-expressing human mGlu7: fluorescent cell based-Ca2+ mobilization assay (FLIPR), inhibition of EC80 L-AP4 response; conditions: HEK-293 cells expressing hmGlu7, EC80 L-AP4; mean of at least three independent experiments in duplicate; read-out: Ca^2+ Flux (mean IC50)
Sequence (Q14831 35-922 isoform Q14831-2 limits assumed): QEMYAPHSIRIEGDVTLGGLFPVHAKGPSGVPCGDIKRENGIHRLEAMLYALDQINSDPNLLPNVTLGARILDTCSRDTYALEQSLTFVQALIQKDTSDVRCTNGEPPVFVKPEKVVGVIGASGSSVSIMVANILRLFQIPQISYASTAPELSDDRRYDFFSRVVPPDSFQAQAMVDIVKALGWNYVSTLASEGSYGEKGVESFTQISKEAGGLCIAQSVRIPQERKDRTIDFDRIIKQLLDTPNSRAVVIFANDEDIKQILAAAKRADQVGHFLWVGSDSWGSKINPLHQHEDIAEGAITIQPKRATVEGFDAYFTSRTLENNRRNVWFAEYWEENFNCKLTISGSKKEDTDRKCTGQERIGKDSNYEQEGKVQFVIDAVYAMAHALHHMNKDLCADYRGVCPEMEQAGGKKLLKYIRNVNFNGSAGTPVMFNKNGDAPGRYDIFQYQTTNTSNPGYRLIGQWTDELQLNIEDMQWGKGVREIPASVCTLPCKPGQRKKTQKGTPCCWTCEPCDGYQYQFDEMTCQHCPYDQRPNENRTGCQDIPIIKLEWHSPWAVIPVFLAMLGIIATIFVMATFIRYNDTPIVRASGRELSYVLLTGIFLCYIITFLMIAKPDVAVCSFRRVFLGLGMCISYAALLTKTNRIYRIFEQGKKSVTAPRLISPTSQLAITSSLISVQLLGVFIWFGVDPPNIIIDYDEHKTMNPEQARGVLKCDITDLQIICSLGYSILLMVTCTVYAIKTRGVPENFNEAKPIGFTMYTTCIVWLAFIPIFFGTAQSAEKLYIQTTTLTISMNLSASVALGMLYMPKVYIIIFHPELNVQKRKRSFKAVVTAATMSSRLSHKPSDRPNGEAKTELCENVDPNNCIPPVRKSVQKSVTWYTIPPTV
pIC50: −log10 of the molar value.

>>> readout_value("Cc1ccc(-c2c(C)c3cnn(-c4ccccn4)c(=O)n3c2C)c(C)c1")
"> 7.00"
>>> readout_value("Cc1c(-c2cccc(OC3CC3)c2)c(C)n2c(=O)n(-c3ncc(N4CCOCC4)cn3)ncc12")
"6.00 to 7.00"
>>> readout_value("Cc1c(OC(F)F)cccc1-c1c(C)c2cnn(-c3ncccn3)c(=O)n2c1C")
"6.00 to 7.00"
>>> readout_value("COc1cc(-c2cc3cnn(-c4ncccn4)c(=O)n3c2C)ccn1")
"> 7.00"
>>> readout_value("Cc1c(-c2cccc(OC(F)F)c2)c(C)n2c(=O)n(-c3ncccn3)ncc12")
"> 7.00"
>>> readout_value("COc1cccc(-c2cc3cnn(-c4ncccn4)c(=O)n3c2C)c1C")
"> 7.00"
>>> readout_value("COc1cccc(-c2c(C)c3cnn(-c4ncccn4)c(=O)n3c2C)n1")
"6.00 to 7.00"
>>> readout_value("COc1cccc(-c2cc3cnn(-c4ccccn4)c(=O)n3c2C)c1F")
"6.00 to 7.00"
>>> readout_value("Cc1c(-c2cccc(OC3CC3)c2F)cc2cnn(-c3ccccn3)c(=O)n12")
"> 7.00"
>>> readout_value("COc1ccc(-c2c(C)c3cnn(-c4ncccn4)c(=O)n3c2C)cn1")
"> 7.00"

Task: Could you tell me which pIC50 is on file for Cc1c(-c2ccnc(OC(F)F)c2)c(C)n2c(=O)n(-c3ncccn3)ncc12 ?
Output: 5.00 to 6.00

Task: What do we get for Cc1c(-c2cccc(N3CCC3)c2)c(C)n2c(=O)n(C3CCOCC3)ncc12 ?
Output: 6.00 to 7.00

Task: Item: Cc1c(-c2cccc(N3CCC3)c2)c(C)n2c(=O)n(-c3ccncc3)ncc12
Output: 6.00 to 7.00

Task: Same again, this time with COc1ccc(-c2cc3cnn(-c4ccccn4)c(=O)n3c2C)cn1
Output: 6.00 to 7.00

Task: How about Cc1c(-c2cccc3c2CCCN3C)c(C)n2c(=O)n(-c3ncccn3)ncc12 ?
Output: 6.00 to 7.00

Task: Try this molecule next: Cc1c(-c2cccc3c2CCN3C2CC2)cc2cnn(-c3ccccn3)c(=O)n12
Output: > 7.00

Task: Please give the result for COc1ccc(F)c(-c2c(C)c3cnn(-c4ccccn4)c(=O)n3c2C)c1 too.
Output: 6.00 to 7.00

Task: COc1cnc(-n2ncc3c(C)c(-c4cccc(OC(F)(F)F)c4)c(C)n3c2=O)nc1 , same question.
Output: 6.00 to 7.00

Task: Also Cc1c(-c2cccc3c2CCN3C2CC2)c(C)n2c(=O)n(-c3ncccn3)ncc12 ?
Output: 6.00 to 7.00

Task: Queued: Cc1c(-c2cccc3c2CCCN3C2CC2)c(C)n2c(=O)n(-c3ncccn3)ncc12
Output: 6.00 to 7.00

###

target: UniProtKB Q14831; test: mGlu7 assay on HEK-expressing human mGlu7: fluorescent cell based-Ca2+ mobilization assay (FLIPR), inhibition of EC80 L-AP4 response; conditions: HEK-293 cells expressing hmGlu7, EC80 L-AP4; mean of at least three independent experiments in duplicate; read-out: Ca^2+ Flux (mean IC50)
IC50 by entry:

Example entries begin here.
>>> readout_value("COc1cccc(-c2c(C)c3cnn(-c4ccccn4)c(=O)n3c2C)c1")
"< 100 nM"
>>> readout_value("COc1cccc(-c2c(C)c3cnn(-c4ncccn4)c(=O)n3c2C)c1C")
"100 to 1000 nM"
>>> readout_value("COc1cccc(-c2cc3cnn(-c4ncccn4)c(=O)n3c2C)c1")
"100 to 1000 nM"
>>> readout_value("COc1cc(-c2c(C)c3cnn(-c4ncccn4)c(=O)n3c2C)ccn1")
"100 to 1000 nM"
>>> readout_value("CCn1ncc2c(C)c(-c3cccc(N4CCC4)c3)c(C)n2c1=O")
"100 to 1000 nM"

Task: I am curious: what IC50 value has been reported for COc1nccc(-c2cc3cnn(-c4ccccn4)c(=O)n3c2C)c1F ?
Output: 100 to 1000 nM

Task: Then Cc1c(-c2cccc(N3CCC3)c2)c(C)n2c(=O)n(-c3ccc(NCCN(C)C)cn3)ncc12 ?
Output: 100 to 1000 nM

###

biological target: human metabotropic glutamate 7 receptor (hmGlu7) (Homo sapiens); experiment: mGlu7 assay on HEK-expressing human mGlu7: fluorescent cell based-Ca2+ mobilization assay (FLIPR), inhibition of EC80 L-AP4 response; conditions: HEK-293 cells expressing hmGlu7, EC80 L-AP4; mean of at least three independent experiments in duplicate; read-out: Ca^2+ Flux (mean IC50)
IC50 listing for selected compounds.

Here is how some compounds turned out for IC50.
>>> readout_value("Cc1c(-c2cccc(N3CCC3)c2)c(C)n2c(=O)n(-c3ccc(N4CCOCC4)nc3)ncc12")
"100 to 1000 nM"
>>> readout_value("Cc1c(-c2c(C)c3cnn(-c4ccccn4)c(=O)n3c2C)cccc1N1CCC1")
"< 100 nM"
>>> readout_value("Cc1c(-c2cccc3c2ccn3C2CC2)c(C)n2c(=O)n(-c3ncccn3)ncc12")
"< 100 nM"
>>> readout_value("Cc1c(-c2cccc(OC(F)F)c2)cc2cnn(-c3ccccn3)c(=O)n12")
"100 to 1000 nM"
>>> readout_value("Cc1c(-c2cccc(N3C4CCC3CC4)c2)c(C)n2c(=O)n(-c3ncccn3)ncc12")
"100 to 1000 nM"

Task: Given Cc1c(-c2cccc(OC3CC3)c2)c(C)n2c(=O)n(-c3ncc(N)cn3)ncc12 , state its recorded IC50.
Output: 100 to 1000 nM

Task: // query: Cc1c(-c2ccnc(OC(F)F)c2)c(C)n2c(=O)n(-c3ccccn3)ncc12
Output: 100 to 1000 nM

Task: Repeat for the following compound: CCn1ncc2c(C)c(-c3cccc4c3CCCN4C)c(C)n2c1=O
Output: 100 to 1000 nM

###

The entries below are paired with their reported IC50.
target: UniProt Q14831; assay: mGlu7 assay on HEK-expressing human mGlu7: fluorescent cell based-Ca2+ mobilization assay (FLIPR), inhibition of EC80 L-AP4 response; settings: HEK-293 cells expressing hmGlu7, EC80 L-AP4; mean of at least three independent experiments in duplicate; read-out: Ca^2+ Flux (mean IC50)

Task: State the recorded IC50 for this entry: Cc1c(-c2cccc3c2CCCN3C)cc2cnn(-c3ncccn3)c(=O)n12
Output: < 100 nM

Task: Input Cc1c(-c2cccc3c2CCO3)cc2cnn(-c3ccccn3)c(=O)n12
Output: < 100 nM

Task: Then this compound: COc1cccc(-c2c(C)c3cnn(-c4ccccn4)c(=O)n3c2C)c1C
Output: 100 to 1000 nM

Task: What would you report for Cc1c(-c2cccc3c2OCCN3C)cc2cnn(-c3ncccn3)c(=O)n12 ?
Output: < 100 nM

Task: Likewise for Cc1c(-c2cccc3c2OCCN3C)cc2cnn(-c3ccccn3)c(=O)n12 ?
Output: < 100 nM

Task: Next up: COc1cnc(-n2ncc3c(C)c(-c4cccc(OC(F)F)c4)c(C)n3c2=O)nc1
Output: 100 to 1000 nM

Task: Check Cc1c(-c2cccc(N3CCC3)c2)c(C)n2c(=O)n(-c3ncccn3)ncc12 too.
Output: < 100 nM

Task: Another compound to check: Cc1c(-c2cccc(N3CCC3)c2)c(C)n2c(=O)n(-c3ncc(N)cn3)ncc12
Output: < 100 nM

Task: Okay, and Cc1c(-c2cccc3c2CCN3C(C)C)cc2cnn(-c3ccccn3)c(=O)n12 ?
Output: 100 to 1000 nM

###

target: human metabotropic glutamate 7 receptor (hmGlu7) (Homo sapiens); test: mGlu7 assay on HEK-expressing human mGlu7: fluorescent cell based-Ca2+ mobilization assay (FLIPR), inhibition of EC80 L-AP4 response; conditions: HEK-293 cells expressing hmGlu7, EC80 L-AP4; mean of at least three independent experiments in duplicate; read-out: Ca^2+ Flux (mean IC50)
pIC50: −log10 of the molar value.
Each item that follows carries a reported pIC50.

>>> readout_value("COc1cc(F)cc(-c2cc3cnn(-c4ncccn4)c(=O)n3c2C)c1 [1-103]")
"> 7.00"
>>> readout_value("Cc1c(-c2cccc(OC3CC3)c2)c(C)n2c(=O)n(-c3ccccn3)ncc12 [1-20]")
"> 7.00"
>>> readout_value("Cc1c(-c2cc3cnn(-c4ncccn4)c(=O)n3c2C)ccnc1OC1CC1 [1-145]")
"> 7.00"
>>> readout_value("Cc1c(OC2CC2)cccc1-c1c(C)c2cnn(-c3ncc(F)cn3)c(=O)n2c1C [1-49]")
"6.00 to 7.00"
>>> readout_value("COc1ccc(-c2c(C)c3cnn(-c4ccccn4)c(=O)n3c2C)cn1 [1-129]")
"> 7.00"

Task: Please look up its pIC50: COc1cccc(-c2cc3cnn(-c4ccccn4)c(=O)n3c2C)c1C [1-72]
Output: > 7.00

Task: Then this molecule: Cc1c(-c2cccc3c2CCN3C)c(C)n2c(=O)n(-c3ncccn3)ncc12 [1-87]
Output: 6.00 to 7.00

Task: Try this molecule next: Cc1c(OC2CC2)cccc1-c1cc2cnn(-c3ccccn3)c(=O)n2c1 [1-82]
Output: 6.00 to 7.00

This collection of values is drawn from patent US20260184715A1.
